For each of the compounds below, state its %Inh.
System: BMPR1B
Conditions: concentration: 1 μM, replicates: in singlicate; n = 1;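 further: KINOMEscan kinase panel screen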
State the answer as a number, implicitly in %.

Report %Inh for COc1cccc(NC(=O)NCCNc2ccnc(Nc3ccc(F)cc3)n2)c1 please. 0

Report %Inh for CN(c1ccc(F)c(NC(=O)c2cccc(OC(C)(C)C#N)c2Cl)c1)c1ccc2nc(NC(=O)C3CC3)sc2n1 please. 0

Report %Inh for COC(=O)Nc1nc2ccc(Oc3ccc(CC(=O)Nc4cc(C(F)(F)F)ccc4F)cc3)cc2[nH]1 please. 0

---

System: PRKD2
Conditions: concentration: 1 μM, replicates: in singlicate; n = 1
Experimental endpoint: %Inh (%)
State the answer as a number, implicitly in %.

Report %Inh for Nc1ncc(-c2cn[nH]c2)c2scc(-c3ccc4c(c3)CCN4C(=O)Cc3ccccc3)c12 please. 0

Report %Inh for Cc1cc(-c2c(-c3ccc(F)cc3)ncn2CCCN2CCOCC2)nc(N)n1 please. 0

Report %Inh for COc1cccc(-c2nc(-c3ccccc3)[nH]c2-c2ccncc2)c1 please. 0

Report %Inh for COc1cc(Nc2nccc(N3CCC(NC(=O)Nc4ccc5c(c4)OCO5)C3)n2)cc(OC)c1OC (centres unmarked) please. 0

Report %Inh for Cc1ccc(O)cc1Nc1ccnc2cc(-c3ccc(CN4CCCCC4)o3)ccc12 please. 97.8
